Heads up, these molecules all have pIC50 values measured for Csk (Homo sapiens, UniProt P41240).
When answering, recall that pIC50 equals minus log10 of the concentration in mol/L, and write that number alone.

Qu. Give pIC50 for this entry on Csk (Homo sapiens, UniProt P41240): "CC(=O)OCCN1CCN(c2cc(Nc3ncc(C(=O)Nc4c(C)cccc4Cl)s3)nc(C)n2)CC1"
Sequence (P41240 whole entry, species assumed): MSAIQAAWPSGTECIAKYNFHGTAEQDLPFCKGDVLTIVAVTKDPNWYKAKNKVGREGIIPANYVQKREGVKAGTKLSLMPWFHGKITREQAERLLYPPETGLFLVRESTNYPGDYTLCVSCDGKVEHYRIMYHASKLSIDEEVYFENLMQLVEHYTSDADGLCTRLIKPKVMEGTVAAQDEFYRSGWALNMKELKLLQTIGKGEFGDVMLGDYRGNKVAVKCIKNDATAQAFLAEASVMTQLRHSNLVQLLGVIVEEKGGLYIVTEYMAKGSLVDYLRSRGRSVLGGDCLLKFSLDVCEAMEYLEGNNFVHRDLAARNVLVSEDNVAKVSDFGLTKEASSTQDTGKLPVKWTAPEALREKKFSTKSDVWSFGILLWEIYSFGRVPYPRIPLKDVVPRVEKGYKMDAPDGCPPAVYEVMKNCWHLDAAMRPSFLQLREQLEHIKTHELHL
Ans. 8.26

// below: pIC50 requested for another molecule
Qu. Give pIC50 for this entry on Csk (Homo sapiens, UniProt P41240): "Cc1nc(Nc2ncc(C(=O)Nc3c(C)cccc3Cl)s2)cc(N2CCN(CCOC(=O)[C@H](C)N)CC2)n1"
Ans. 7.68
